assayRemarks: Half life in Beagle dog at 3 umol/kg, po
Type: ADME, organism-based, Canis lupus familiaris
measurementContext: in vivo
resultType: half-life (h)

1) N#Cc1cc(CN2CCC2)cnc1-c1ccc(C(=O)Nc2ccccc2N)cc1
2.1

====

assayRemarks: Half life in mouse at 65.2 umol/kg, po
Format: ADME, organism-based
measurementContext: in vivo
resultType: half-life

1) N#Cc1cc(CN2CCC2)cnc1-c1ccc(C(=O)Nc2ccccc2N)cc1
3 h

====

Catalogue of solubility readings, one per entry.
assayRemarks: Solubility at pH 7.4
Assay type: physicochemical
measurementContext: buffer
resultType: solubility (µM)

1. Cc1cc(CN2CCC2)cnc1-c1ccc(C(=O)Nc2ccccc2N)cc1
2240
2. Nc1ccccc1NC(=O)c1ccc(-c2ncc(CN3CCC3)cc2F)cc1
841
3. N#Cc1cccnc1-c1ccc(C(=O)Nc2ccccc2N)cc1
35
4. N#Cc1cc(CN2CCC2)cnc1-c1ccc(C(=O)Nc2ccccc2N)cc1
746
5. CC(C)N1CCN(Cc2cnc(-c3ccc(C(=O)Nc4ccccc4N)cc3)c(C#N)c2)CC1
1380
6. Nc1ccccc1NC(=O)c1ccc(-c2ncc(CN3CCC3)cc2Cl)cc1
1340

Each recorded value in this set is attributed to ChEMBL document CHEMBL1144843.
